- systemName: 5HT1D receptor
- testName: Inhibition of 3H-serotonin binding to 5HT1D receptor
- assaySetup: rat brain membranes, 25 °C, 30 min, pH 7.4, read-out: Inhibition of Radioligand Binding to 5HT Receptor 1D (IC50)
Counter-ions that a name gives are not always drawn.
assayEndpoint: IC50 (nM)
# value in nM; strip the unit string

compound="CC(=O)N[C@H]1CC[C@H](NC(=O)[C@@H]2C[C@@H]3c4cccc5c4c(cn5C(C)C)C[C@H]3N(C)C2)CC1 (relative stereo) [Example 1]" assayendpoint=IC50 unitstext=nM reportedmeasurement=198

Output measured IC50 for this item: CC(C)n1cc2c3c(cccc31)[C@H]1C[C@@H](C(=O)N[C@H]3CC[C@H](NS(C)(=O)=O)CC3)CN(C)[C@@H]1C2 (relative stereo) [Example 2, maleate]
276

* * *

- systemName: 5HT1C receptor (Bos taurus)
- Sequence (A0AAA9SBU1 33-457): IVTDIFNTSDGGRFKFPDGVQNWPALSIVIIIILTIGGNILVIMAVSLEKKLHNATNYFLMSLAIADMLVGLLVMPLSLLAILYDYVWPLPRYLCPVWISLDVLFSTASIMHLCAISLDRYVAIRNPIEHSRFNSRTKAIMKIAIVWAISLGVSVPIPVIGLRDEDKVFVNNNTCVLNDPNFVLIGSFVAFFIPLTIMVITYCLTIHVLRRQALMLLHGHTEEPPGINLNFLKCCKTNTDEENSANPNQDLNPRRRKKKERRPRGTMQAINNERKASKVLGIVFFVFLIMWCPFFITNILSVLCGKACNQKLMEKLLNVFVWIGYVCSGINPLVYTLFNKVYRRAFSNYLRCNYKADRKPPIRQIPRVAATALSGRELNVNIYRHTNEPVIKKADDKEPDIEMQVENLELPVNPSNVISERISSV
- testName: Inhibition of 3H-mesulergine binding to 5HT1C receptor
- assaySetup: bovine choroid plexus membranes; 2 nM 3H-mesulergine; 25 °C, 30 min, pH 7.4; read-out: Inhibition of Radioligand Binding to 5HT Receptor 1C (IC50)
Structures can show the parent of a compound that is named as a salt.
assayEndpoint: pIC50
Answer as the number alone; pIC50 is minus log10 of concentration in mol/L.

Give pIC50 only, for CC(C)n1cc2c3c(cccc31)[C@H]1C[C@@H](C(=O)N[C@H]3CC[C@H](NS(C)(=O)=O)CC3)CN(C)[C@@H]1C2 (relative stereo) [Example 2, maleate] , using 5HT1C receptor (Bos taurus) data.
7.66

* * *

- systemName: 5HT1A receptor (Rattus norvegicus, UniProt P19327)
- Construct: membranes isolated from bovine choroid plexus (for 5HT1.sbsb.c) or rat brain; from tissue
- Sequence (P19327 whole entry): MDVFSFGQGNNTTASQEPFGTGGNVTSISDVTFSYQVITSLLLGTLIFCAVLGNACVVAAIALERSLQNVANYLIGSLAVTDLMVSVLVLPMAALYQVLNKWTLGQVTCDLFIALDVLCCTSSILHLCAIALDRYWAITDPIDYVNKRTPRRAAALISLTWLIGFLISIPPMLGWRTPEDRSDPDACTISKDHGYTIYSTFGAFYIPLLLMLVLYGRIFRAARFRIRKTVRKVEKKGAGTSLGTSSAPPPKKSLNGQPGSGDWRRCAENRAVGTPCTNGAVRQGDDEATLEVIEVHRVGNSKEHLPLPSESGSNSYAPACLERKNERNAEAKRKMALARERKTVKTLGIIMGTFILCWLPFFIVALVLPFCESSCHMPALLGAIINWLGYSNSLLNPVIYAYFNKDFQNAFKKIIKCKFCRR
- testName: Inhibition of 3H-8-hydroxy-2-(di-n-propylamino)tetralin binding to 5HT1A receptor
- Design: species or system male Sprague-Dawley rats
- assaySetup: rat brain membranes; 3H-8-hydroxy-2-(di-n-propylamino)tetralin; 25 °C, 30 min, pH 7.4; read-out: Inhibition of Radioligand Binding to 5HT Receptor 1A (IC50)
assayEndpoint: IC50 (µM)
Enter your answer as a number in µM; do not include the unit.

Complete the entry with IC50 for CC(=O)N[C@H]1CC[C@H](NC(=O)[C@@H]2C[C@@H]3c4cccc5c4c(cn5C(C)C)C[C@H]3N(C)C2)CC1 (relative stereo)
2.31

Where these numbers come from: patent US5739146A
